# IC50 against PIK3CB (Human), merged from multiple literature sources
assay.endpoint: IC50 (µM)

Some compounds with recorded IC50:
compound	readout.unit	IC50
COC[C@H](Nc1ccc2c(c1F)OCCn1cc(N3C(=O)SC[C@H]3C(F)F)nc1-2)C(N)=O	µM	1.07
Cc1nc2c(-c3nnc[nH]3)cc(-c3ccnc(N)c3Cl)cc2n1-c1ccnc2c(F)ccc(F)c12	µM	0.019

A = C[C@@H](O)C[C@H]1OC(=O)N(c2cc(-c3cnc(N)nc3C(F)(F)F)nc(N3CCOCC3)n2)[C@H]1C (single isomer, unassigned)
B = C[C@H]1[C@H](c2nccs2)OC(=O)N1c1cc(-c2cnc(N)nc2C(F)(F)F)nc(N2CCOCC2)n1
Query string: Of A and B , whose reported IC50 is the larger number? Refer to your chosen item by its label in the answer.
Result string: A
